- Target of assay: T1, KDM5B-PHD1-D322A (Homo sapiens)
- T1 chain: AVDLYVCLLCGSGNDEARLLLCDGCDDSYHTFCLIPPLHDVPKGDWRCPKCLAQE
- Assay method text: ITC
Observable: Kd (µM)
One number for each entry, in µM.

Q: Given ARTKQTARKS (histone H3 N-terminal tail, residues 1-10; also called H3K4me0; H3K4me0 peptide; source: synthetic peptide, bought: GL Biochem Ltd. (Shanghai, China)) [unmodified H3K4 peptide (residues 1-10)] , respond with its Kd.
A: 10.7
